System: HCMV recombinant mutant virus
Experiment: microbe, parasite or virus in culture
Format: cell-based, human cytomegalovirus
Details: Human betaherpesvirus 5, read-out: IC50 (ug/ml) HCMV
Protocol: Microtiter plate assay. […] At 96 hours post-infection, the infected cell lysates are prepared (using 50mM sodium phosphate [pH7.0] containing 0.1 % Triton X-100 and 0.1% sarkosyl) and assayed for beta-glucuronidase activity using a substrate for the enzyme which when cleaved yields either a product which can be measured colorimetrically in a spectrophotometer or fluorescently in a microfluorimeter. […]
result.type: IC50 (µg/mL)
Output spec: scalar in µg/mL, unitless text.

The cases that follow already have their IC50 on record.
compound=COc1cc(NC(=O)c2ccccc2F)ccc1NC(=S)Nc1cc(Cl)c(C)cc1OC units=µg/mL recorded_value=3
compound=COc1cc(OC)c(NC(=S)Nc2cc(OC)c(NC(=O)c3ccccc3F)cc2C)cc1Cl units=µg/mL recorded_value=40
compound="CC(NC(=S)Nc1ccc(NC(=O)c2ccccc2F)c(OCC#N)c1)c1ccc(C#N)cc1 (centres unmarked)" units=µg/mL recorded_value=3.6
compound="CC(NC(=S)Nc1ccc(NC(=O)c2ccccc2F)c(C(=O)c2ccccc2)c1)c1ccc(F)cc1 (centres unmarked)" units=µg/mL recorded_value=1.8

Q) Quick one: give measured IC50 for COc1cc(OC)c(NC(=S)Nc2ccc(NC(=O)c3ccccc3F)c(C(F)(F)F)c2)cc1Cl
A) 4

Q) Report IC50 for CC(NC(=S)Nc1ccc(NC(=O)c2ccccc2F)c(N(C)C)c1)c1ccc(F)cc1 (centres unmarked)
A) 4.5

Q) Identify measured IC50 associated with CC(NC(=S)Nc1ccc(NC(=O)c2ccccc2F)c(C#N)c1)c1ccc(C#N)cc1 (centres unmarked)
A) 2.1

Q) Supply reported IC50 belonging to this compound: CC(NC(=S)Nc1ccc(NC(=O)c2ccccc2F)c(C#N)c1)c1ccc(Br)cc1 (centres unmarked)
A) 10.4

Q) Identify IC50 associated with the compound Cc1c(C)c(NC(=S)NC(C)c2ccc(F)cc2)c(C)c(C)c1NC(=O)c1ccccc1F (centres unmarked)
A) 9

Q) Output measured IC50 for this item: CC(NC(=S)Nc1ccc(NC(=O)c2ccccc2F)c(C(F)(F)F)c1)c1cc2ccccc2o1 (centres unmarked)
A) 2
